Data provenance is the supplement of paper PMC7877785.

- PROTOCOL SUMMARY: self-splicing fitness, log relative to wild type (ln ratio); higher = more splicing; Tetrahymena group I intron in knt gene, E. coli kanamycin selection, DiMSum; sequences stand for … in CUCUCU…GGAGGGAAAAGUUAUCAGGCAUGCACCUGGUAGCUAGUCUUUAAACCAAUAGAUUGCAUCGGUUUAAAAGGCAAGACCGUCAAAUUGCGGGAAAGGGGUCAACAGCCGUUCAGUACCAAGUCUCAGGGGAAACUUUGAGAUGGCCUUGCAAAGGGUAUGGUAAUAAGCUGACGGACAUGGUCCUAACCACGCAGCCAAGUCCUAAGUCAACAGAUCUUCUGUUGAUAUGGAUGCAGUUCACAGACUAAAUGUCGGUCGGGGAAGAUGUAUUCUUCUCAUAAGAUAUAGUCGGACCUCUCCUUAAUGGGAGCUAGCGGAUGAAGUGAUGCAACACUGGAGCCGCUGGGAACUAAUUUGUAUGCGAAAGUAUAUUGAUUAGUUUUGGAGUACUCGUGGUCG;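 further: selection with 25 µg/mL kanamycin versus none on LB agar overnight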
- CONDITION DETAILS: 37 °C
Tag: met if measured self-splicing fitness (ln) is not below -1, not met if it is.

Lookup: Given the entry UCAUAGCAAUAUUACGGAGC , answer whether its self-splicing fitness (ln) meets or surpasses -1.
Found: not met

Further cases:
Lookup: # check: self-splicing fitness (ln) of CUCUAGCAAUAUUACGUGAC is greater than or equal to -1
Found: not met

Lookup: Confirm if self-splicing fitness (ln) reported for the sequence AGGCAGCAAUAUUACGAAAU is -1 or above.
Found: not met

Lookup: Has GUCGAGCAAUAUUACGCGGG a recorded self-splicing fitness (ln) greater than or equal to -1?
Found: not met

Lookup: Does AUGCAGCAAUAUUACGGCGC have a reported self-splicing fitness (ln) of at least -1?
Found: met

Lookup: Reported self-splicing fitness (ln) reaches at least -1 for CAAUAGCAAUAUUACGUCAA ?
Found: not met

Lookup: # check: self-splicing fitness (ln) of CGUCAGCAAUAUUACGGAUC is greater than or equal to -1
Found: met

Lookup: Could you tell me if the measured self-splicing fitness (ln) of GUAGAGCAAUAUUACGAGGU reaches -1 or more?
Found: not met

Lookup: API: above_or_equal(metric=self-splicing fitness (ln), cutoff=-1) for item AGCUAGCAAUAUUACGUAAA
Found: not met
